Below, each of the binders is paired with its reported ELISA (A450) value.
Target System: T1, Human CD3 epsilon (CD3epsilon) protein (His Tag) (human, UniProt P07766 23-126)
T1 construct: extracellular domain; Bought protein; also called recombinant human CD3epsilon ECD; not shown: His tag
T1 sequence (P07766 23-126): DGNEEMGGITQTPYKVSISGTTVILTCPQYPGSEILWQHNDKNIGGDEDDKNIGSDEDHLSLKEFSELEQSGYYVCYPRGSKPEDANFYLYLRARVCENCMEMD
Protocol Description: ELISA, antigen coated on plate
Numbers only; they are read as A450.

Below, each entry is followed by its recorded ELISA (A450) result.
{"Binder": "WBP3311_2.400.5 (antibody, V domains shown, Mouse monoclonal antibody from hybridoma; also called W3311-2.400.5) VH: QVQLQQSGPELVNPGASVKISCKASGYSFTNYYLHWVKQRPGQGLEWIGWIFPESDNTKYNEKLKGKATLTADTSSDTAYMHLSSLTFEDSAVYFCARDSVGNYFFDFWGQGTTLTVSS VL: DIVMSQSPSSLAVSAGEKVTMRCKSSQSLVNNRTRKNYLAWYQQKPGQPPKLLIYWASTRESGVPDRFTGSGSGTDFTLTISSVQAEDLAVYYCAQSFILRTFGGGTKLEIK", "Measurement Units": "A450", "ELISA (A450)": 2.83}
{"Binder": "WBP3311_2.166.48 (antibody, IgG2a, V domains shown, Mouse monoclonal antibody from hybridoma; also called W3311-2.166.48; W3311_2.166.48) VH: QVQLQQSGPELVKPGASVKIACKASGYSFTTYYIHWVKQRPGQGLEWIGWIFPGNDNIKYSEKFKGKATLTADTSSSTAYMQLSSLTSEDSAVYFCAIDSVSIYYFDYWGQGTTLTVSS VL: DIVMSQSPSSLAVSAGEKVTMSCKSSQSLLNSRTRKNYLAWYQQKPGQSPKLLIYWASTRKSGVPDRFTGSGSGTDFTLTINSVQAEDLAVYYCTQSFILRTFGGGTKLEIK", "Measurement Units": "A450", "ELISA (A450)": 2.76}

Item WBP3311_2.383.47 (antibody, V domains shown, Mouse monoclonal antibody from hybridoma) VH: QVQLQQSGPELVKPGASVRISCKTSGFTFTNYYIHWVIQRPGQGLEWIGWISPENGNTKYNENFQDKATLTADISSSTAYMHLSSLTSEDSAVYFCARDGYSLYYFDYWGQGTTLTVSS VL: DIVMSQSPSSLTVSAGEKVTMSCKSSQSLLNSRTRKNYLAWYQQKPGQSPKLLIYWASIRVSGVPDRFTGSGSGTTFTLTISGVQAEDLAVYYCTQSHTLRTFGGGTKLEIK : provide ELISA (A450)
2.79

Item WBP3311_2.615.8 (antibody, V domains shown, Mouse monoclonal antibody from hybridoma; also called W3311-2.615.8) VH: QVQLQQSGPELVKPGTSMKISCKASGYSFTDFYTHWVRQRPGQGLEWIGWIFPGSDNIKYNEKFKGKATLTADTSSSTAYMQLSSLTSEDSAVYFCARDSVSVYYFDYWGQGTTLTVSS VL: DIVMSQSPSSLAVTAGEKVTMSCKSSQSLLNIRTRKNYLAWYQQKPGQSPKLLIYWASTRDSGVPDRFTGSGSGTDFTLTISSVQAEDLAVYYCTQSFILRTFGGGTKLEIK : provide ELISA (A450)
2.82

Item WBP331_2.488.33 (antibody, V domains shown, Mouse monoclonal antibody from hybridoma; also called WBP3311_2.488.33; W3311-2.488.33) VH: QVQLQQSGPELVKPGTSVKISCKASGFSFTNYYIHWVKQRPGQGPEWIGWIFPGTVNTKYNEKFKGKATLTADTSSNTAFMQLSSLTSADSAVYFCARDSVGIYYFDFWGLGTTLTVSS VL: DIVMSQSPSSLAVSAGEKVTVSCKSSQSLLNNRTRKNYLAWYQQKPGQSPKLLIYWASTRESGVPDRFTGSGSGTDFTLTISSVQAEDLAVYYCTQSFILRTFGGGTKLEIK : provide ELISA (A450)
2.91
